B1: PKD2L1 (parent)
chain: YSGGGYYLDLPGSRQGSAEALRAL

# Variants of: B1
# ASSAY_REMARKS: protein stability index of a GFP-peptide fusion (GPS, HEK-293T) (PSI 1-6); higher = more stable;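 also: lentivirally expressed fusions sorted by FACS into six bins by GFP to DsRed ratio, PSI derived from sequencing read proportions per bin multiplied by bin number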
# APPLIED_CONDITIONS: c terminus: a fixed tail appended
Can you tell me protein stability index for the items I'm about to list?
API note: the answer field is a bare number with no unit suffix.

Provide one value: measured protein stability index of L24D 1.6

Provide one value: measured protein stability index of Y7T 2.71

Provide one value: measured protein stability index of D9I 3.81

Provide one value: measured protein stability index of Y6E 3.37

Provide one value: measured protein stability index of L10E 2.69

Provide one value: measured protein stability index of L10Q 1.27

Provide one value: measured protein stability index of G4Q 2.23

Provide one value: measured protein stability index of A23T 2.24

Provide one value: measured protein stability index of S17R 1.41

Provide one value: measured protein stability index of Y7K 2.75

Provide one value: measured protein stability index of Q15I 3.59

Provide one value: measured protein stability index of A23G 1.44

Provide one value: measured protein stability index of L24G 2.63

Provide one value: measured protein stability index of R22H 1.92

Provide one value: measured protein stability index of Q15G 1.47

Provide one value: measured protein stability index of L24Q 1.17

Provide one value: measured protein stability index of P11A 1.89

Provide one value: measured protein stability index of G12C 1.24

Provide one value: measured protein stability index of Q15R 2.27

Provide one value: measured protein stability index of R22F 2.84

Provide one value: measured protein stability index of L10P 1.9

Provide one value: measured protein stability index of G4Y 1.65

Provide one value: measured protein stability index of P11K 1.91

Provide one value: measured protein stability index of A20F 2.64

Provide one value: measured protein stability index of A23N 2.05

Provide one value: measured protein stability index of L24N 2.1

Provide one value: measured protein stability index of A23I 1.66

Provide one value: measured protein stability index of Y1R 3.13

Provide one value: measured protein stability index of L8A 2.12

Provide one value: measured protein stability index of L10G 1.56

Provide one value: measured protein stability index of Y1T 3.58

Provide one value: measured protein stability index of S13Y 1.96

Provide one value: measured protein stability index of Y7L 1.66

Provide one value: measured protein stability index of Y1E 3.75

Provide one value: measured protein stability index of L21H 2.05

Provide one value: measured protein stability index of L21C 1.41

Provide one value: measured protein stability index of P11I 1.94

Provide one value: measured protein stability index of G5S 1.83

Provide one value: measured protein stability index of R22Y 2.02

Provide one value: measured protein stability index of A23P 2.19

Provide one value: measured protein stability index of L24A 1.85

Provide one value: measured protein stability index of R22L 1.36

Provide one value: measured protein stability index of L24M 1.63

Provide one value: measured protein stability index of L21Q 1.87

Provide one value: measured protein stability index of D9R 2

Provide one value: measured protein stability index of L10A 2.27

The origin of these recorded values is the supplement of paper PMC10567573.
